assay: PK of compound of Formula (Ia) after single subcutaneous dose of solution formulations in Wistar Han rats; assay type: in vivo; conditions: male, Wistar Han, rat, plasma, sc, 50 mg/kg, Wistar Han rats, SC 50 mg/kg, 400 mg/mL solution W (5.00% ethanol, 1.57% poloxamer 188), 840 h, Mean n = 3
readout.type: concentration at 840 h
Please answer using the number first and the unit second.

Please report concentration at 840 h for the following molecule: CC(C)(C#Cc1ccc(-c2ccc(Cl)c3c(NS(C)(=O)=O)nn(CC(F)(F)F)c23)c([C@H](Cc2cc(F)cc(F)c2)NC(=O)Cn2nc(C(F)(F)F)c3c2C(F)(F)[C@@H]2C[C@H]32)n1)S(C)(=O)=O [compound of Formula (Ia)] 0.29 µM

====

assay: PK of compound of Formula (Ia) after single subcutaneous dose of solution formulations in Wistar Han rats; assay type: in vivo; conditions: male, Wistar Han, rat, plasma, sc, 50 mg/kg, Wistar Han rats, SC 50 mg/kg, 400 mg/mL solution Y (water, PEG 300), 72.0 h, animals #1-#4
readout.type: concentration at 72 h (nM)
One number for each entry, in nM.

Output concentration at 72 h of "CC(C)(C#Cc1ccc(-c2ccc(Cl)c3c(NS(C)(=O)=O)nn(CC(F)(F)F)c23)c([C@H](Cc2cc(F)cc(F)c2)NC(=O)Cn2nc(C(F)(F)F)c3c2C(F)(F)[C@@H]2C[C@H]32)n1)S(C)(=O)=O" 87.1

====

test: PK of compound of Formula (Ia) after single subcutaneous dose of solution formulations in Wistar Han rats; assay type: in vivo; conditions: male, Wistar Han, rat, plasma, sc, 50 mg/kg, 3360 h; individual rats; SC 50 mg/kg; solution S, 500 mg/mL
readout.type: concentration at 3360 h (nM)
One number for each entry, in nM.

Respond only with concentration at 3360 h recorded for "CC(C)(C#Cc1ccc(-c2ccc(Cl)c3c(NS(C)(=O)=O)nn(CC(F)(F)F)c23)c([C@H](Cc2cc(F)cc(F)c2)NC(=O)Cn2nc(C(F)(F)F)c3c2C(F)(F)[C@@H]2C[C@H]32)n1)S(C)(=O)=O" 135

====

test: PK of compound of Formula (Ia) after single subcutaneous dose of solution formulations in beagle dogs; assay type: in vivo; settings: male, beagle, dog, plasma, sc, 12 mg/kg, male beagle dogs, single SC 12 mg/kg, 500 mg/mL solution X (5.00% ethanol, 1.91% poloxamer 188), mean ± SD, n = 3; read-out: AUC0-2688 h
readout.type: AUC(0-t) (µM·h)
Give bare numbers, in µM·h.

Read off the recorded AUC(0-t) for CC(C)(C#Cc1ccc(-c2ccc(Cl)c3c(NS(C)(=O)=O)nn(CC(F)(F)F)c23)c([C@H](Cc2cc(F)cc(F)c2)NC(=O)Cn2nc(C(F)(F)F)c3c2C(F)(F)[C@@H]2C[C@H]32)n1)S(C)(=O)=O [compound of Formula (Ia)] 130

====

assay: PK of compound of Formula (Ia) after single subcutaneous dose of solution formulations in Wistar Han rats; format: in vivo; settings: male, Wistar Han, rat, plasma, sc, 50 mg/kg, mean ± SD, n = 3 rats; SC 50 mg/kg; solution S, 500 mg/mL; read-out: AUC0-1344 h
readout.type: AUC(0-t) (µM·h)
One number for each entry, in µM·h.

Output AUC(0-t) of CC(C)(C#Cc1ccc(-c2ccc(Cl)c3c(NS(C)(=O)=O)nn(CC(F)(F)F)c23)c([C@H](Cc2cc(F)cc(F)c2)NC(=O)Cn2nc(C(F)(F)F)c3c2C(F)(F)[C@@H]2C[C@H]32)n1)S(C)(=O)=O [compound of Formula (Ia)] 334

====

assay: PK of compound of Formula (Ia) after single subcutaneous dose of solution formulations in Wistar Han rats; format: in vivo; settings: male, Wistar Han, rat, plasma, sc, 50 mg/kg, mean ± SD, n = 3 rats; SC 50 mg/kg; solution R, 400 mg/mL; read-out: AUC0-2352h
readout.type: AUC(0-t)

Name the recorded AUC(0-t) of the item CC(C)(C#Cc1ccc(-c2ccc(Cl)c3c(NS(C)(=O)=O)nn(CC(F)(F)F)c23)c([C@H](Cc2cc(F)cc(F)c2)NC(=O)Cn2nc(C(F)(F)F)c3c2C(F)(F)[C@@H]2C[C@H]32)n1)S(C)(=O)=O [compound of Formula (Ia)] in your answer. 649 µM·h

====

test: PK of compound of Formula (Ia) after single subcutaneous dose of solution formulations in Wistar Han rats; format: in vivo; conditions: male, Wistar Han, rat, plasma, sc, 50 mg/kg, 2016 h; mean, n = 3 rats; SC 50 mg/kg; solution V, 300 mg/mL
readout.type: concentration at 2016 h (nM)
Numbers only, in nM.

State its concentration at 2016 h for this molecule: "CC(C)(C#Cc1ccc(-c2ccc(Cl)c3c(NS(C)(=O)=O)nn(CC(F)(F)F)c23)c([C@H](Cc2cc(F)cc(F)c2)NC(=O)Cn2nc(C(F)(F)F)c3c2C(F)(F)[C@@H]2C[C@H]32)n1)S(C)(=O)=O" 181

====

test: PK of compound of Formula (Ia) after single subcutaneous dose of solution formulations in beagle dogs; type: in vivo; conditions: male, beagle, dog, plasma, sc, 12 mg/kg, mean ± SD, n = 3 dogs; SC 12 mg/kg; solution U, 500 mg/mL; read-out: AUC0-336 h
readout.type: AUC(0-t) (µM·h)
Numbers only, in µM·h.

Assign AUC(0-t) to the following record: "CC(C)(C#Cc1ccc(-c2ccc(Cl)c3c(NS(C)(=O)=O)nn(CC(F)(F)F)c23)c([C@H](Cc2cc(F)cc(F)c2)NC(=O)Cn2nc(C(F)(F)F)c3c2C(F)(F)[C@@H]2C[C@H]32)n1)S(C)(=O)=O" 33.9

====

assay: PK of compound of Formula (Ia) after single subcutaneous dose of solution formulations in Wistar Han rats; format: in vivo; details: male, Wistar Han, rat, plasma, sc, 50 mg/kg, Wistar Han rats, SC 50 mg/kg, 500 mg/mL solution X (5.00% ethanol, 1.91% poloxamer 188), 72.0 h, animals #1-#3
readout.type: concentration at 72 h (nM)
One number for each entry, in nM.

Recall and state the measured concentration at 72 h for CC(C)(C#Cc1ccc(-c2ccc(Cl)c3c(NS(C)(=O)=O)nn(CC(F)(F)F)c23)c([C@H](Cc2cc(F)cc(F)c2)NC(=O)Cn2nc(C(F)(F)F)c3c2C(F)(F)[C@@H]2C[C@H]32)n1)S(C)(=O)=O [compound of Formula (Ia)] . 207

====

assay: PK of compound of Formula (Ia) after single subcutaneous dose of solution formulations in Wistar Han rats; type: in vivo; conditions: male, Wistar Han, rat, plasma, sc, 50 mg/kg, 840 h; mean, n = 5 rats; SC 50 mg/kg; solution T, 400 mg/mL
readout.type: concentration at 840 h (nM)
Numbers only, in nM.

Using known records, supply concentration at 840 h for "CC(C)(C#Cc1ccc(-c2ccc(Cl)c3c(NS(C)(=O)=O)nn(CC(F)(F)F)c23)c([C@H](Cc2cc(F)cc(F)c2)NC(=O)Cn2nc(C(F)(F)F)c3c2C(F)(F)[C@@H]2C[C@H]32)n1)S(C)(=O)=O" 215

====

test: PK of compound of Formula (Ia) after single subcutaneous dose of solution formulations in beagle dogs; type: in vivo; conditions: male, beagle, dog, plasma, sc, 12 mg/kg, 48.0 h; individual dogs; SC 12 mg/kg; solution U, 500 mg/mL
readout.type: concentration at 48 h (nM)
Give bare numbers, in nM.

Give concentration at 48 h for the following compound: "CC(C)(C#Cc1ccc(-c2ccc(Cl)c3c(NS(C)(=O)=O)nn(CC(F)(F)F)c23)c([C@H](Cc2cc(F)cc(F)c2)NC(=O)Cn2nc(C(F)(F)F)c3c2C(F)(F)[C@@H]2C[C@H]32)n1)S(C)(=O)=O" 72.8

====

experiment: PK of compound of Formula (Ia) after single intramuscular dose of solution formulations in Wistar Han rats; format: in vivo; settings: Wistar Han, rat, plasma, intramuscular, 100 mg/kg, Solution H (~400 mg/mL); IM 100 mg/kg; Wistar Han rats; mean, n = 4; 96.0 h; read-out: Plasma concentration, Mean
readout.type: concentration at 96 h (nM)
Answers are plain numbers, in nM.

Answer with the recorded concentration at 96 h of CC(C)(C#Cc1ccc(-c2ccc(Cl)c3c(NS(C)(=O)=O)nn(CC(F)(F)F)c23)c([C@H](Cc2cc(F)cc(F)c2)NC(=O)Cn2nc(C(F)(F)F)c3c2C(F)(F)[C@@H]2C[C@H]32)n1)S(C)(=O)=O [compound of Formula (Ia)] only. 477
